Molecular target: Kv1.5 (Homo sapiens, UniProt P22460)
Construct: expressed in transfected cells; host or cells: HEK or LTK- cells
Sequence (P22460 whole entry): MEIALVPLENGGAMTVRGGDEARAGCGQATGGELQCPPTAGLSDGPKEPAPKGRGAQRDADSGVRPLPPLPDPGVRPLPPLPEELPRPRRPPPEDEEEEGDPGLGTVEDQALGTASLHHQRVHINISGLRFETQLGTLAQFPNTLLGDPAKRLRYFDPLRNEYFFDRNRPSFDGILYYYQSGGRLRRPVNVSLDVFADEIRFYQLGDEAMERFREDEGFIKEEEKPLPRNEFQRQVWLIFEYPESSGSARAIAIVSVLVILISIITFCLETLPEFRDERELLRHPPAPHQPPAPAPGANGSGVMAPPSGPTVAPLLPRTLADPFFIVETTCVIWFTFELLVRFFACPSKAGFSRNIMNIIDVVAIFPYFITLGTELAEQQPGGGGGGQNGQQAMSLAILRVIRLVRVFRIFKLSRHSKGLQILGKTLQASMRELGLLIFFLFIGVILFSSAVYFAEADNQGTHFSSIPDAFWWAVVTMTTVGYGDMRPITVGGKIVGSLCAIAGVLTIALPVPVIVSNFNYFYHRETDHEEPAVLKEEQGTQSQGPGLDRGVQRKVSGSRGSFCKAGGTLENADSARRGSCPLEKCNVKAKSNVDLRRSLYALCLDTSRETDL
Experiment: Kv1.5 Patch Clamp EP
Format: cell-based
Conditions: whole cell patch clamp, HEK or LTK- cells; at least four concentrations, n=3
Description: The external solution is standard Tyrodes solution. […] Inhibition was measured at the end of the 1 second pulses and expressed relative to controls. Initial Kv1.5 inhibition is estimated by single point determinations done at 1 μM.
pIC50: −log10 of the molar value.
endpoint: pIC50

[[record]]
compound = "COc1ccc(CCN2C(=O)N(NS(C)(=O)=O)C[C@@H]2c2ccc(OC(F)F)cc2)cc1"
endpoint = "pIC50"
measured_result = 6.27

[[record]]
compound = "COc1ccc(CCCN2C(=O)N(NS(C)(=O)=O)CC2c2ccc(C3CC3)cc2)cc1 (stereo not shown)"
endpoint = "pIC50"
measured_result = 6.64

[[record]]
compound = "COc1ccc(CCCN2C(=O)N(NS(C)(=O)=O)CC2c2ccc(OC)cc2)cc1 (stereo not shown)"
endpoint = "pIC50"
measured_result = 6.33

[[record]]
compound = "COc1ccc(CCN2C(=O)N(NCc3ccc(N(C)C)cc3)CC2c2ccc(C)c(C)c2)cc1 (stereo not shown)"
endpoint = "pIC50"
measured_result = 6.45


----------
Molecular target: Kv1.5 (Homo sapiens)
Construct: expressed in transfected cells; host or cells: HEK or LTK- cells
Assay: Kv1.5 Patch Clamp EP
Assay type: cell-based
Details: 1.0 μM, single point; whole cell patch clamp, Kv1.5 stably over expressed in HEK or LTK- cells
endpoint: inhibition at 1 µM (%)

The cases that follow already have their inhibition at 1 µM on record.
[[record]]
molecule = "COc1ccc(CCN2C(=O)N(NCc3ccc(N(C)C)cc3)CC2c2ccc(C(C)(C)C)cc2)cc1 (centres unmarked)"
endpoint = "inhibition at 1 µM"
readout_units = "%"
measured_result = 85

[[record]]
molecule = "COc1ccc(CCN2C(=O)N(N(CCn3ccnc3)C(=O)OC(C)(C)C)CC2c2ccc(C(C)(C)C)cc2)cc1 (centres unmarked)"
endpoint = "inhibition at 1 µM"
readout_units = "%"
measured_result = 83

[[record]]
molecule = "COc1ccc(CCN2C(=O)N(NCc3cccnc3)CC2c2ccc(C)c(C)c2)cc1 (centres unmarked)"
endpoint = "inhibition at 1 µM"
readout_units = "%"
measured_result = 67

[[record]]
molecule = "COc1ccc(CCN2C(=O)N(NS(=O)(=O)CC(F)(F)F)CC2c2ccc(C(C)(C)C)cc2)cc1 (centres unmarked)"
endpoint = "inhibition at 1 µM"
readout_units = "%"
measured_result = 85

[[record]]
molecule = "COc1ccc(CCN2C(=O)N(N)CC2c2ccc(OC)cc2)cc1 (centres unmarked)"
endpoint = "inhibition at 1 µM"
readout_units = "%"
measured_result = 7


[a] COc1ccc(CCN2C(=O)N(NCCn3ccnc3)CC2c2ccc(C(C)(C)C)cc2)cc1 (centres unmarked)
[b] COc1ccc(CCN2C(=O)N(NCc3cnc4ccccc4c3)CC2c2ccc(C)c(C)c2)cc1 (centres unmarked)
[c] COC(=O)c1ccc(NN2CC(c3ccc(C)c(C)c3)N(CCc3ccc(OC)cc3)C2=O)c(N)c1 (centres unmarked)
Request: Descending sort on inhibition at 1 µM required. Answer by writing out the labels in the requested order.
Response: b, c, a
(b: 86%, c: 53%, a: 7%)
